- Target Entity: Glucose transporter (Leishmania mexicana) (UniProt O61059)
- Assay Comment: ST_JUDE_LEISH: Cytotoxicity at 2uM final concentration against transgenic Leishmania Mexicana promastigotes LmGT2 that are glucose transport deficient and complemented with the L. Mexicana glucose transporter 2. Activity is measured by DNA content using SYBR green in vitro
- Format: functional
Endpoint Name: inhibition

Molecule: COc1cccc2c(C)cc(NCc3ccc(Cl)cc3)nc12
inhibition: 3.54%
//
Molecule: COc1ccc(NC(=O)c2ccc(-c3nc(-c4cccc(C(F)(F)F)c4)cs3)cc2)cc1N1CCN(C)CC1
inhibition: 2.01%
//
Molecule: COc1ccc2[nH]c(C(=O)Nc3cccc(-c4ccc(CN(C)C)cc4)c3)cc2c1
inhibition: -0.5%
//
Molecule: CCC(=O)c1ccc(-c2ccc(=O)n(CC(=O)N(CCN(CC)CC)Cc3ccc(-c4ccc(C(F)(F)F)cc4)cc3)n2)cc1
inhibition: -1.47%
//
Molecule: CC(=O)Nc1ccc(C2NC(=O)NC(c3ccccc3)=C2c2nc3ccccc3s2)cc1 (centres undefined)
inhibition: 2.69%

Give inhibition for this entry on Glucose transporter (Leishmania mexicana) (UniProt O61059): COc1ccc(CNC(=O)C2Cc3ccccc3CN2Cc2ccc3ccccc3c2)cc1 (centres undefined)
-0.58%

Give inhibition for this entry on Glucose transporter (Leishmania mexicana) (UniProt O61059): O=c1cc(NCCC(CNCCc2ccccc2)NCc2cc(Br)cc(Br)c2)[nH]c2ccccc12 (centres undefined)
2.71%

Give inhibition for this entry on Glucose transporter (Leishmania mexicana) (UniProt O61059): `Cc1cc(N2CCC(NS(=O)(=O)c3ccc(F)cc3)CC2)nc(Nc2cccc(C#N)c2)n1`
41%

Give inhibition for this entry on Glucose transporter (Leishmania mexicana) (UniProt O61059): `Cc1ccc(C(=O)Nc2cccc(-c3ccc(N4CCN(C)CC4)nn3)c2)cc1[N+](=O)[O-]`
-1.16%
